Test system: hepatic gene expression
run description: Real-time RT-PCR of hepatic mRNA after 13-week exposure: TCDD 100, PeCDF 200, PCB126 1,000 ng/kg/day, PCB153 1,000 μg/kg/day
Assay type: in vivo, female Harlan Sprague-Dawley rats
test conditions: liver, 13 weeks; average (± 1 SD) of three RNA pools; normalized to 18S RNA
What CYP3A9 mRNA, average change vs vehicle, RT-PCR was measured for each of the following?

Quick check: CYP3A9 mRNA, average change vs vehicle, RT-PCR of Clc1cc2c(cc1Cl)Oc1cc(Cl)c(Cl)cc1O2 [TCDD, 2,3,7,8-tetrachlorodibenzo-p-dioxin] ? −1024 (−1201.8 to −872.5)

Please do the same for Clc1ccc(-c2cc(Cl)c(Cl)c(Cl)c2)cc1Cl [PCB126, 3,3′,4,4′,5-pentachlorobiphenyl] as well. −28.5 (−30.2 to −26.9)

// next record Clc1cc2oc3c(Cl)c(Cl)c(Cl)cc3c2cc1Cl [PeCDF, 2,3,4,7,8-pentachlorodibenzofuran] −4.2 (−5 to −3.5)

Record: Clc1cc(Cl)c(-c2cc(Cl)c(Cl)cc2Cl)cc1Cl [PCB153, 2,2′,4,4′,5,5′-hexachlorobiphenyl] −1.8 (−2.1 to −1.5)

---

Tested on: hepatic gene expression
test conditions: liver, 13 weeks; average (± 1 SD) of three GeneChips
Answer each item with its documented CES3 mRNA, average change vs vehicle, Microarray.

I would be grateful if you could share the reported CES3 mRNA, average change vs vehicle, Microarray for Clc1ccc(-c2cc(Cl)c(Cl)c(Cl)c2)cc1Cl . −4 (−4.4 to −3.6)

Next molecule: Clc1cc2c(cc1Cl)Oc1cc(Cl)c(Cl)cc1O2 −8.1 (−9.9 to −6.3)

What about this molecule? Clc1cc(Cl)c(-c2cc(Cl)c(Cl)cc2Cl)cc1Cl 1.3 (1 to 1.6)

Can you check Clc1cc2oc3c(Cl)c(Cl)c(Cl)cc3c2cc1Cl next? −2.8 (−3.8 to −1.8)

---

Task for the reader: assign each of the following compounds its reported SERPIN7A mRNA, average change vs vehicle, RT-PCR.
Test system: hepatic gene expression
run description: Real-time RT-PCR of hepatic mRNA after 13-week exposure: TCDD 100, PeCDF 200, PCB126 1,000 ng/kg/day, PCB153 1,000 μg/kg/day
Type: in vivo, female Harlan Sprague-Dawley rats
test conditions: liver, 13 weeks; average (± 1 SD) of three RNA pools; normalized to 18S RNA

Request - read-out SERPIN7A mRNA, average change vs vehicle, RT-PCR | tested on hepatic gene expression | compound Clc1ccc(-c2cc(Cl)c(Cl)c(Cl)c2)cc1Cl −8.4 (−12 to −5.9)

Same question, Clc1cc2c(cc1Cl)Oc1cc(Cl)c(Cl)cc1O2 this time −26.6 (−30.2 to −23.4)

Queued: Clc1cc2oc3c(Cl)c(Cl)c(Cl)cc3c2cc1Cl −29.9 (−32 to −27.9)

And then Clc1cc(Cl)c(-c2cc(Cl)c(Cl)cc2Cl)cc1Cl , what is it? −1.2 (−1.5 to 1)

---

Test system: hepatic gene expression
test conditions: liver, 13 weeks; average (± 1 SD) of three GeneChips
Please respond with reported CYP1B1 mRNA, average change vs vehicle, Microarray for every item in the list.

Fill in: CYP1B1 mRNA, average change vs vehicle, Microarray of Clc1cc(Cl)c(-c2cc(Cl)c(Cl)cc2Cl)cc1Cl is ___ 2.1 (1 to 3.2)

Clc1cc2c(cc1Cl)Oc1cc(Cl)c(Cl)cc1O2 , same question. 676.3 (470.8 to 881.8)

What do you have for Clc1cc2oc3c(Cl)c(Cl)c(Cl)cc3c2cc1Cl ? 493.3 (310.1 to 676.5)

Also, Clc1ccc(-c2cc(Cl)c(Cl)c(Cl)c2)cc1Cl please. 317.1 (41.1 to 593.1)
